- Assay Target: human Retinoid X Receptor beta (RXRb), RXRB (gene 6257) (UniProt P28702)
- Sequence (P28702 whole entry, looked up): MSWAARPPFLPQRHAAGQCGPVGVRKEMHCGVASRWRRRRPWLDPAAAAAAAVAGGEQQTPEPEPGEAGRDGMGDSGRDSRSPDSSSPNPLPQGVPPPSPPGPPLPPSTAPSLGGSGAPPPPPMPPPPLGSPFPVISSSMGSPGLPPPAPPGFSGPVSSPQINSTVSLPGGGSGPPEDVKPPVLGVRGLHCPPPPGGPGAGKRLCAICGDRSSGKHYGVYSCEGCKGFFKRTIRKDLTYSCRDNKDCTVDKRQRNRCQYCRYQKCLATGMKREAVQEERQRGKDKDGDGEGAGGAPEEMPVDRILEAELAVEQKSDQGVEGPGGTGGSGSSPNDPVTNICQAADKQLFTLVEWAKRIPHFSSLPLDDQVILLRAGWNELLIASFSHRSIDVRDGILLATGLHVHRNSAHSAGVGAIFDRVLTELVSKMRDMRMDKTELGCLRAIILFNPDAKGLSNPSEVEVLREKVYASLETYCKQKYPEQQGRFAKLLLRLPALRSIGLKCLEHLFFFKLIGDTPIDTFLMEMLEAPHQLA
- Assay Method Text: ATG_RXRb_TRANS: Attagene TRANS-FACTORIAL HepG2 Assay for human Retinoid X Receptor beta (RXRb) (AID 2283013)
Inconclusive results are not listed. Active and inactive are the calls of the source. The calls were made as follows: active = hit-call score of the fitted dose curve at least 0.9, where 1 is the maximum; inconclusive = response in the unintended direction; inactive = score below 0.9.
The reply should name one outcome from Y = active, N = inactive

The following compounds have reported results that may help.
CCCC(=O)OCC | N
C=CCCCCCCCCC(=O)O | Y
CC[C@H](C)C(=O)O[C@H]1C[C@@H](C)C=C2C=C[C@H](C)[C@H](CC[C@@H]3C[C@@H](O)CC(=O)O3)[C@H]21 | N
Cc1ccc(S(=O)(=O)O)cc1C | N
CCOC(=O)CC(CC(=O)OCC)(OC(C)=O)C(=O)OCC | N

Task: What is the recorded call for this compound in the test? O=C(O)c1cccc(Oc2ccccc2)c1
Result: N

Task: What is the recorded call for this compound in the test? COC(=O)c1ccccc1O
Result: Y

Task: What is the recorded call for this compound in the test? CC(C)CCCCCCCOC(=O)CCCCC(=O)OCCCCCCCC(C)C
Result: Y

Task: What is the recorded call for this compound in the test? CC(=O)OC[C@H]1O[C@@](COC(C)=O)(O[C@H]2O[C@H](COC(C)=O)[C@@H](OC(C)=O)[C@H](OC(C)=O)[C@H]2OC(C)=O)[C@@H](OC(C)=O)[C@@H]1OC(C)=O
Result: N

Task: What is the recorded call for this compound in the test? CC(O)CN(CCN(CC(C)O)CC(C)O)CC(C)O (stereo not given)
Result: N

Task: What is the recorded call for this compound in the test? C=CC(=C)CCC=C(C)C
Result: N

Task: What is the recorded call for this compound in the test? CC(C)CCO
Result: N

Task: What is the recorded call for this compound in the test? CC(C)=CCC/C(C)=C/CO
Result: N

Task: What is the recorded call for this compound in the test? CC(C)c1cccc(C(C)C)c1N1C(=O)c2ccc(O)cc2C1=O
Result: N

Task: What is the recorded call for this compound in the test? CCCCC(CC)COC(=O)c1ccc(C(=O)OCC(CC)CCCC)cc1 (stereo not given)
Result: Y

Task: What is the recorded call for this compound in the test? COCCOCCOCCOC
Result: N

Task: What is the recorded call for this compound in the test? Cc1[nH]cnc1C[C@H]1CCc2c(C)c3ccccc3n2C1=O
Result: N

Task: What is the recorded call for this compound in the test? O=C(O)c1cc(N=Nc2ccc(S(=O)(=O)Nc3ccccn3)cc2)ccc1O
Result: N

Task: What is the recorded call for this compound in the test? CCNc1ccccc1
Result: N

Task: What is the recorded call for this compound in the test? COc1ccc(-n2nc(C(F)F)cc2-c2ccc(S(C)=O)cc2)cc1 (stereo not given)
Result: N

Task: What is the recorded call for this compound in the test? CCCCCCc1ccc(O)cc1O
Result: Y

Task: What is the recorded call for this compound in the test? Cc1ccc(N)cc1O
Result: N

Task: What is the recorded call for this compound in the test? O=P(OC(CCl)CCl)(OC(CCl)CCl)OC(CCl)CCl
Result: Y

Task: What is the recorded call for this compound in the test? CC[C@H]1CC[C@H](NCc2cc3c(cc2OC)[C@H]2C[C@H]2C(=O)N3C)[C@H](c2ccccc2)N1
Result: N

Task: What is the recorded call for this compound in the test? CC(C)=CCCC(C)=CC=O
Result: N

Task: What is the recorded call for this compound in the test? C1N2CN3CN1CN(C2)C3
Result: N
